Reference source for all entries: ChEMBL document CHEMBL3259782

- Tested on: Leishmania donovani
- TEST_DESCRIPTION: Antiamastigote activity against amastigote stage of Leishmania donovani MHOM/IN/80/Dd8 expressing luciferase firefly reporter gene infected in mouse J774A1 cells after 72 hrs by luminescence assay
- Assay type: functional, organism-based
- RECORDED_CONDITIONS: MHOM/IN/80/Dd8, J774.A1, 72 h
MEASURED_ATTRIBUTE: IC50 (µM)

Answered examples (8):
COc1ccc(/C=C/C(=O)c2ccc3c(c2O)C=CC(C)(C)O3)cc1OC 11.9
CC1(C)C=Cc2c(ccc(C(=O)/C=C/c3ccc(OCCN4CCCC4)cc3)c2OCCN2CCCC2)O1 2.5
CC1(C)C=Cc2c(ccc(C(=O)/C=C/c3ccc(OCCN4CCCCC4)cc3)c2O)O1 17.7
CC1(C)C=Cc2c(ccc(C(=O)/C=C/c3ccc(F)c(F)c3)c2O)O1 17
CCOc1cc(/C=C/C(=O)c2ccc3c(c2O)C=CC(C)(C)O3)ccc1F 12.1
CC1(C)C=Cc2c(ccc(C(=O)/C=C/c3ccc(C#N)cc3)c2O)O1 8.2
CCN(CC)CCOc1ccc(/C=C/C(=O)c2ccc3c(c2OCCN(CC)CC)C=CC(C)(C)O3)cc1 2
CC1(C)C=Cc2c(ccc(C(=O)/C=C/c3ccc(F)cc3)c2O)O1 16.7

(I) CC1(C)C=Cc2c(ccc(C(=O)/C=C/c3ccc(Cl)cc3)c2O)O1
(II) CC1(C)C=Cc2c(ccc(C(=O)/C=C/c3ccccn3)c2O)O1
(III) CC(C)=CCOc1ccc(C(=O)/C=C/c2ccc(N(C)C)cc2)cc1
(IV) CN(C)c1ccc(/C=C/C(=O)c2ccc(OCCN3CCCCC3)cc2)cc1
Prompt: # rank by IC50, ascending (min first) Provide the labels, sequenced as the question asks.
Response: II, III, IV, I

----------
- TEST_DESCRIPTION: Cytotoxicity against African green monkey Vero cells assessed as cell viability after 72 hrs by MTT assay
- Format: cell-based
- RECORDED_CONDITIONS: chlorocebus sabaeus
Consider the following compounds and their measured CC50 at 72 h readings.
Respond with the bare value in µM.

Answered examples (3):
CCN(CC)CCOc1ccc(/C=C/C(=O)c2ccc3c(c2OCCN(CC)CC)C=CC(C)(C)O3)cc1 325
CC1(C)C=Cc2c(ccc(C(=O)/C=C/c3ccc(F)c(F)c3)c2O)O1 146
CC1(C)C=Cc2c(ccc(C(=O)/C=C/c3cc4ccccc4nc3Cl)c2O)O1 257

Noted for "CC1(C)C=Cc2c(ccc(C(=O)/C=C/c3ccc([N+](=O)[O-])cc3)c2O)O1" : its CC50 at 72 h reads 106

Noted for "CC1(C)C=Cc2c(ccc(C(=O)/C=C/c3ccc(OCCN4CCCCC4)cc3)c2OCCN2CCCCC2)O1" : its CC50 at 72 h reads 86.5

Noted for "CC1(C)C=Cc2c(ccc(C(=O)/C=C/c3ccccn3)c2O)O1" : its CC50 at 72 h reads 20.5

Noted for "CC1(C)C=Cc2c(ccc(C(=O)/C=C/c3ccc(OCCN4CCCC4)cc3)c2OCCN2CCCC2)O1" : its CC50 at 72 h reads 258

----------
- TEST_DESCRIPTION: Cytotoxicity against African green monkey Vero cells assessed as cell viability after 72 hrs by MTT assay
- Assay type: cell-based
- RECORDED_CONDITIONS: chlorocebus sabaeus
MEASURED_ATTRIBUTE: CC50 at 72 h (µM)
Respond with the bare value in µM.

COc1ccc(/C=C/C(=O)c2ccc3c(c2O)C=CC(C)(C)O3)cc1OC 267
CCOc1cc(/C=C/C(=O)c2ccc3c(c2O)C=CC(C)(C)O3)ccc1F 185
CN(C)c1ccc(/C=C/C(=O)c2ccc(OCCN3CCCCC3)cc2)cc1 251
CC1(C)C=Cc2c(ccc(C(=O)/C=C/c3ccc(Cl)cc3Cl)c2O)O1 131
CC1(C)C=Cc2c(ccc(C(=O)/C=C/c3ccc(C#N)cc3)c2O)O1 80.2

Consider the record given below.
Noted for "CC(=O)Nc1ccc(/C=C/C(=O)c2ccc3c(c2O)C=CC(C)(C)O3)cc1" : its CC50 at 72 h reads 278

----------
- TEST_DESCRIPTION: Cytotoxicity against African green monkey Vero cells assessed as cell viability after 72 hrs by MTT assay
- Format: cell-based
- RECORDED_CONDITIONS: chlorocebus sabaeus
MEASURED_ATTRIBUTE: CC50 at 72 h (µM)
Respond with the bare value in µM.

CC1(C)C=Cc2c(ccc(C(=O)/C=C/c3cccnc3)c2O)O1 8.6
CC(C)=CCC/C(C)=C/COc1ccc(C(=O)/C=C/c2ccc(O)cc2)cc1 12.9
COc1ccc(/C=C/C(=O)c2ccc(OC/C=C(\C)CCC=C(C)C)cc2)cc1 146
CC1(C)C=Cc2c(ccc(C(=O)/C=C/c3ccc(Cl)cc3)c2O)O1 92.2
CCN(CC)CCOc1ccc(/C=C/C(=O)c2ccc3c(c2O)C=CC(C)(C)O3)cc1 341
Cc1ccc2nc(Cl)c(/C=C/C(=O)c3ccc4c(c3O)C=CC(C)(C)O4)cc2c1 399

Noted for "CC1(C)C=Cc2c(ccc(C(=O)/C=C/c3ccc(Cl)c(Cl)c3)c2O)O1" : its CC50 at 72 h reads 142

Noted for "CC1(C)C=Cc2c(ccc(C(=O)/C=C/c3ccc(F)cc3)c2O)O1" : its CC50 at 72 h reads 158

Noted for "CCOc1ccc(/C=C/C(=O)c2ccc3c(c2O)C=CC(C)(C)O3)cc1" : its CC50 at 72 h reads 215

----------
- Test system: Leishmania donovani
- TEST_DESCRIPTION: Antiamastigote activity against amastigote stage of Leishmania donovani MHOM/IN/80/Dd8 expressing luciferase firefly reporter gene infected in mouse J774A1 cells after 72 hrs by luminescence assay
- Format: functional, organism-based
- RECORDED_CONDITIONS: MHOM/IN/80/Dd8, J774.A1, 72 h
pIC50: −log10 of the molar value.
Consider the following compounds and their measured pIC50 readings.

Answered examples (2):
CC1(C)C=Cc2c(ccc(C(=O)/C=C/c3ccc(OCCN4CCCC4)cc3)c2O)O1 < 4.70
CC1(C)C=Cc2c(ccc(C(=O)/C=C/c3ccc4ccoc4c3)c2O)O1 < 4.70

Noted for "CCOc1ccc(/C=C/C(=O)c2ccc(OCCN3CCCCC3)cc2)cc1" : its pIC50 reads < 4.70

Noted for "CC1(C)C=Cc2c(ccc(C(=O)/C=C/c3ccc(O)cc3)c2O)O1" : its pIC50 reads < 4.70

Noted for "CC1(C)C=Cc2c(ccc(C(=O)/C=C/c3cc(C=O)ccc3O)c2O)O1" : its pIC50 reads < 4.70

Noted for "CC(C)=CCC/C(C)=C/CC/C(C)=C/COc1ccc(C(=O)/C=C/c2ccc(N(C)C)cc2)cc1" : its pIC50 reads < 4.70

Noted for "CC1(C)C=Cc2c(ccc(C(=O)/C=C/c3ccc(Cl)c(Cl)c3)c2O)O1" : its pIC50 reads 4.86

----------
- Tested on: Leishmania donovani
- TEST_DESCRIPTION: Antiamastigote activity against amastigote stage of Leishmania donovani MHOM/IN/80/Dd8 expressing luciferase firefly reporter gene infected in mouse J774A1 cells after 72 hrs by luminescence assay
- Format: functional, organism-based
- RECORDED_CONDITIONS: MHOM/IN/80/Dd8, J774.A1, 72 h
MEASURED_ATTRIBUTE: IC50 (µM)

(P) CCN(CC)CCOc1ccc(/C=C/C(=O)c2ccc3c(c2O)C=CC(C)(C)O3)cc1
(Q) CC1(C)C=Cc2c(ccc(C(=O)/C=C/c3ccc(OCCN4CCCCC4)cc3)c2OCCN2CCCCC2)O1
Prompt: When their IC50 values are compared, which is larger, P or Q ? Output the label that corresponds to your choice.
Response: P
(P: 14.9 µM, Q: 2.8 µM)
